- Tested on: MDA-MB-231
- Test Details: Growth inhibition of human MDA-MB-231 cells assessed tumor cell growth at 10^-5 M
- Assay type: functional
- Design: scale not given: the % may be the effect or the level left
Observation Type: Activity

sample_smiles=O=C1/C(=C\c2cn(Cc3ccccc3)c3ccccc23)c2ccccc2N1Cc1ccccc1 observation_type=Activity reading=100.6%
sample_smiles=CC1=NN(c2cccc(Cl)c2)C(=O)/C1=C\c1cn(C(=O)c2ccc(Cl)cc2)c2ccccc12 observation_type=Activity reading=87.79%
sample_smiles=O=C1/C(=C\c2cn(C(=O)c3ccc(Cl)cc3)c3ccccc23)c2ccccc2N1C(=O)c1ccc(Cl)cc1 observation_type=Activity reading=81.2%
sample_smiles=C=CCn1cc(/C=C2\C(=O)N(c3cccc(Cl)c3)N=C2C)c2ccccc21 observation_type=Activity reading=84.32%
sample_smiles=CC1=NN(c2cccc(Cl)c2)C(=O)/C1=C\c1c[nH]c2ccccc12 observation_type=Activity reading=72.74%
sample_smiles=CC1=NN(c2cccc(Cl)c2)C(=O)/C1=C\c1cn(Cc2ccccc2)c2ccccc12 observation_type=Activity reading=89.94%
sample_smiles=CC1=NN(c2cccc(Cl)c2)C(=O)/C1=C\c1coc2ccccc2c1=O observation_type=Activity reading=98.59%
sample_smiles=Cc1ccc(S(=O)(=O)n2cc(/C=C3\C(=O)Nc4ccccc43)c3ccccc32)cc1 observation_type=Activity reading=66.4%
sample_smiles=CN1C(=O)C(=Cc2coc3ccccc3c2=O)C(=O)N(C)C1=O observation_type=Activity reading=96.45%

* * *

- System: COLO 205
- Test Details: Growth inhibition of human COLO205 cells
- Type: functional
Observation Type: GI50 (µM)

sample_smiles=O=C1Nc2ccccc2/C1=C/c1cn(C(=O)c2c(Cl)cccc2Cl)c2ccccc12 bound_sign== reading=7.6
sample_smiles=O=C1/C(=C\c2coc3ccccc3c2=O)c2ccccc2N1c1c(Cl)cccc1Cl bound_sign== reading=3.8
sample_smiles=CC1=NN(c2cccc(Cl)c2)C(=O)/C1=C\c1c(O)ccc2ccccc12 bound_sign=> reading=100
sample_smiles=CC1=NN(c2cccc(Cl)c2)C(=O)/C1=C\C=C\c1ccccc1 bound_sign== reading=2.3
sample_smiles=O=C1/C(=C\c2ccccn2)c2ccccc2N1c1c(Cl)cccc1Cl bound_sign== reading=2.3

* * *

# maps each entry to its Activity
- System: OVCAR-3
- Test Details: Growth inhibition of human OVCAR3 cells assessed tumor cell growth at 10^-5 M
- Format: functional
- Parameters: scale not given: the % may be the effect or the level left
Observation Type: Activity (%)

sample_smiles=CC1=NN(c2cccc(Cl)c2)C(=O)/C1=C\c1cn(Cc2ccccc2)c2ccccc12 observation_type=Activity reading=95.7
sample_smiles=CC1=NN(c2cccc(Cl)c2)C(=O)/C1=C\c1cn(S(=O)(=O)c2ccc(C)cc2)c2ccccc12 observation_type=Activity reading=110.25
sample_smiles=O=C1/C(=C\c2cn(C(=O)c3ccccc3)c3ccccc23)c2ccccc2N1c1c(Cl)cccc1Cl observation_type=Activity reading=116.1
sample_smiles=O=C1/C(=C\c2coc3ccccc3c2=O)c2ccccc2N1c1c(Cl)cccc1Cl observation_type=Activity reading=16.79
sample_smiles=O=C1Nc2ccccc2/C1=C/c1cn(C(=O)c2ccc(Cl)cc2)c2ccccc12 observation_type=Activity reading=98.7
sample_smiles=CC1=NN(c2cccc(Cl)c2)C(=O)/C1=C\c1coc2ccccc2c1=O observation_type=Activity reading=123.01

* * *

# maps each entry to its CC50
- System: SN12C
- Test Details: Growth inhibition of human SN12C cells
- Assay type: functional
- Condition Details: read-out: LC50 (the source's name)
Observation Type: CC50 (µM)

sample_smiles=O=C1Nc2ccccc2/C1=C/c1cn(C(=O)c2c(Cl)cccc2Cl)c2ccccc12 observation_type=CC50 unit_of_measure=µM bound_sign== reading=70.7
sample_smiles=CC1=NN(c2cccc(Cl)c2)C(=O)/C1=C\C=C\c1ccccc1 observation_type=CC50 unit_of_measure=µM bound_sign=> reading=100
sample_smiles=CC1=NN(c2cccc(Cl)c2)C(=O)/C1=C\c1c(O)ccc2ccccc12 observation_type=CC50 unit_of_measure=µM bound_sign=> reading=100
sample_smiles=O=C1/C(=C\c2coc3ccccc3c2=O)c2ccccc2N1c1c(Cl)cccc1Cl observation_type=CC50 unit_of_measure=µM bound_sign=> reading=100
sample_smiles=O=C1/C(=C\c2ccccn2)c2ccccc2N1c1c(Cl)cccc1Cl observation_type=CC50 unit_of_measure=µM bound_sign== reading=58.8

* * *

- System: MCF7
- Test Details: Growth inhibition of human MCF7 cells assessed tumor cell growth at 10^-5 M
- Assay type: functional
- Set-up: scale not given: the % may be the effect or the level left
Label key: Fulfilled means Activity under 80%; Not fulfilled means Activity of 80% or more.

sample_smiles=O=C1/C(=C\c2cn(C(=O)c3c(Cl)cccc3Cl)c3ccccc23)c2ccccc2N1C(=O)c1c(Cl)cccc1Cl experimental_system=MCF7 answer_label="Not fulfilled"
sample_smiles=CC1=NN(c2cccc(Cl)c2)C(=O)/C1=C\c1ccccn1 experimental_system=MCF7 answer_label="Not fulfilled"
sample_smiles=C=CCn1cc(/C=C2\C(=O)N(c3c(Cl)cccc3Cl)c3ccccc32)c2ccccc21 experimental_system=MCF7 answer_label="Not fulfilled"
sample_smiles=O=C1/C(=C\c2cn(C(=O)c3ccc(Cl)cc3)c3ccccc23)c2ccccc2N1C(=O)c1ccc(Cl)cc1 experimental_system=MCF7 answer_label=Fulfilled
sample_smiles=O=C1/C(=C\c2ccccn2)c2ccccc2N1c1c(Cl)cccc1Cl experimental_system=MCF7 answer_label=Fulfilled
sample_smiles=O=C1Nc2ccccc2/C1=C/c1cn(C(=O)c2ccc(Cl)cc2)c2ccccc12 experimental_system=MCF7 answer_label=Fulfilled
sample_smiles=CC1=NN(c2cccc(Cl)c2)C(=O)/C1=C\c1c(O)ccc2ccccc12 experimental_system=MCF7 answer_label=Fulfilled
sample_smiles=CC1=NN(c2cccc(Cl)c2)C(=O)/C1=C\c1cn(C(=O)c2ccc(Cl)cc2)c2ccccc12 experimental_system=MCF7 answer_label="Not fulfilled"
sample_smiles=CC1=NN(c2cccc(Cl)c2)C(=O)/C1=C\C=C\c1ccccc1 experimental_system=MCF7 answer_label=Fulfilled
sample_smiles=Cc1ccc(S(=O)(=O)n2cc(/C=C3\C(=O)Nc4ccccc43)c3ccccc32)cc1 experimental_system=MCF7 answer_label=Fulfilled
sample_smiles=Cc1ccc(S(=O)(=O)n2cc(/C=C3\C(=O)N(c4c(Cl)cccc4Cl)c4ccccc43)c3ccccc32)cc1 experimental_system=MCF7 answer_label="Not fulfilled"
sample_smiles=CC1=NN(c2cccc(Cl)c2)C(=O)/C1=C\c1cn(C(=O)c2c(Cl)cccc2Cl)c2ccccc12 experimental_system=MCF7 answer_label="Not fulfilled"
sample_smiles=Cc1ccc(S(=O)(=O)N2C(=O)/C(=C\c3cn(S(=O)(=O)c4ccc(C)cc4)c4ccccc34)c3ccccc32)cc1 experimental_system=MCF7 answer_label="Not fulfilled"
sample_smiles=CC1=NN(c2cccc(Cl)c2)C(=O)/C1=C\c1c[nH]c2ccccc12 experimental_system=MCF7 answer_label=Fulfilled
sample_smiles=O=C1/C(=C\c2cn(C(=O)c3ccccc3)c3ccccc23)c2ccccc2N1c1c(Cl)cccc1Cl experimental_system=MCF7 answer_label="Not fulfilled"
sample_smiles=O=C1/C(=C\c2coc3ccccc3c2=O)c2ccccc2N1c1c(Cl)cccc1Cl experimental_system=MCF7 answer_label=Fulfilled

* * *

- System: MDA-MB-231
- Test Details: Growth inhibition of human MDA-MB-231 cells
- Format: functional
- Condition Details: read-out: LC50 (the source's name)
Observation Type: CC50

sample_smiles=CC1=NN(c2cccc(Cl)c2)C(=O)/C1=C\C=C\c1ccccc1 observation_type=CC50 reading="> 100 µM"
sample_smiles=O=C1/C(=C\c2ccccn2)c2ccccc2N1c1c(Cl)cccc1Cl observation_type=CC50 reading="29.5 µM"
sample_smiles=O=C1Nc2ccccc2/C1=C/c1cn(C(=O)c2c(Cl)cccc2Cl)c2ccccc12 observation_type=CC50 reading="> 100 µM"
sample_smiles=CC1=NN(c2cccc(Cl)c2)C(=O)/C1=C\c1c(O)ccc2ccccc12 observation_type=CC50 reading="> 100 µM"
sample_smiles=O=C1/C(=C\c2coc3ccccc3c2=O)c2ccccc2N1c1c(Cl)cccc1Cl observation_type=CC50 reading="> 100 µM"

* * *

- Tested on: NCI/ADR-RES
- Test Details: Growth inhibition of human NCI/ADR-RES cells assessed tumor cell growth at 10^-5 M
- Format: functional
- Parameters: scale not given: the % may be the effect or the level left
Assign class by Activity: not lower than 90% means true (1); lower than 90% means false (0).

sample_smiles=O=C1/C(=C\c2coc3ccccc3c2=O)c2ccccc2N1c1c(Cl)cccc1Cl experimental_system=NCI/ADR-RES answer_label="false (0)"
sample_smiles=CC1=NN(c2cccc(Cl)c2)C(=O)/C1=C\c1cn(Cc2ccccc2)c2ccccc12 experimental_system=NCI/ADR-RES answer_label="true (1)"
sample_smiles=O=C1/C(=C\c2ccccn2)c2ccccc2N1c1c(Cl)cccc1Cl experimental_system=NCI/ADR-RES answer_label="false (0)"
sample_smiles=O=C1Nc2ccccc2/C1=C/c1cn(C(=O)c2c(Cl)cccc2Cl)c2ccccc12 experimental_system=NCI/ADR-RES answer_label="false (0)"
sample_smiles=CC1=NN(c2cccc(Cl)c2)C(=O)/C1=C\c1c[nH]c2ccccc12 experimental_system=NCI/ADR-RES answer_label="true (1)"
sample_smiles=O=C1/C(=C\c2cn(C(=O)c3c(Cl)cccc3Cl)c3ccccc23)c2ccccc2N1C(=O)c1c(Cl)cccc1Cl experimental_system=NCI/ADR-RES answer_label="true (1)"
sample_smiles=C#CCN1C(=O)/C(=C\c2cn(CC#C)c3ccccc23)c2ccccc21 experimental_system=NCI/ADR-RES answer_label="true (1)"
sample_smiles=O=C1Nc2ccccc2/C1=C/c1cn(C(=O)c2ccc(Cl)cc2)c2ccccc12 experimental_system=NCI/ADR-RES answer_label="true (1)"
sample_smiles=CC1=NN(c2cccc(Cl)c2)C(=O)/C1=C\c1ccccn1 experimental_system=NCI/ADR-RES answer_label="true (1)"
sample_smiles=O=C1/C(=C\c2cn(C(=O)c3ccc(Cl)cc3)c3ccccc23)c2ccccc2N1C(=O)c1ccc(Cl)cc1 experimental_system=NCI/ADR-RES answer_label="false (0)"
sample_smiles=CC1=NN(c2cccc(Cl)c2)C(=O)/C1=C\c1c(O)ccc2ccccc12 experimental_system=NCI/ADR-RES answer_label="false (0)"
sample_smiles=CC1=NN(c2cccc(Cl)c2)C(=O)/C1=C\c1coc2ccccc2c1=O experimental_system=NCI/ADR-RES answer_label="false (0)"
sample_smiles=O=C1/C(=C\c2cn(C(=O)c3ccccc3)c3ccccc23)c2ccccc2N1c1c(Cl)cccc1Cl experimental_system=NCI/ADR-RES answer_label="true (1)"
sample_smiles=CC1=NN(c2cccc(Cl)c2)C(=O)/C1=C\c1cn(S(=O)(=O)c2ccc(C)cc2)c2ccccc12 experimental_system=NCI/ADR-RES answer_label="false (0)"
sample_smiles=Cc1ccc(S(=O)(=O)N2C(=O)/C(=C\c3cn(S(=O)(=O)c4ccc(C)cc4)c4ccccc34)c3ccccc32)cc1 experimental_system=NCI/ADR-RES answer_label="true (1)"
sample_smiles=O=C1C(=Cc2cn(Cc3ccccc3)c3ccccc23)C(=O)N(Cc2ccccc2)C(=O)N1Cc1ccccc1 experimental_system=NCI/ADR-RES answer_label="true (1)"
sample_smiles=C=CCn1cc(/C=C2\C(=O)N(c3c(Cl)cccc3Cl)c3ccccc32)c2ccccc21 experimental_system=NCI/ADR-RES answer_label="false (0)"
sample_smiles=CC1=NN(c2cccc(Cl)c2)C(=O)/C1=C\C=C\c1ccccc1 experimental_system=NCI/ADR-RES answer_label="false (0)"
sample_smiles=CN1C(=O)C(=Cc2coc3ccccc3c2=O)C(=O)N(C)C1=O experimental_system=NCI/ADR-RES answer_label="false (0)"
sample_smiles=CC1=NN(c2cccc(Cl)c2)C(=O)/C1=C\c1cn(C(=O)c2ccc(Cl)cc2)c2ccccc12 experimental_system=NCI/ADR-RES answer_label="true (1)"
